Molecular target: T1, Cynomolgus OSM (cynomolgus, UniProt A0A2K5VPC6 26-221)
T1 construct: also called Cyno OSM; cynomolgus macaque OSM
T1 sequence: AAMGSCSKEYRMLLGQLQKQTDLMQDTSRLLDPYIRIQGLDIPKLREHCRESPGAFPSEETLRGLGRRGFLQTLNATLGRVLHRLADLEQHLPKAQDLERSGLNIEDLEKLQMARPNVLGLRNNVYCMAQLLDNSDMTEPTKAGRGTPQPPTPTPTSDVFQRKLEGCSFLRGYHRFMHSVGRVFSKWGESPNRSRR
Experiment: BIAcore kinetics, transfection supernatant
Kd values for the binders below.
Output spec: scalar in nM, unitless text.

Value lookup for Kd; key = Humanised 10G8 H0 IGHV3_23 + L1 IGKV1_5 (antibody, V domains shown, built from the stated exchange of CDRL2; residue limits derived by me) VH: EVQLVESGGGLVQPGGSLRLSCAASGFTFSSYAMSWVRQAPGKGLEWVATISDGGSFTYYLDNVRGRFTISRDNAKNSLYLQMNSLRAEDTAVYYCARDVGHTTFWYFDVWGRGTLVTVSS VL: DIVMTQSPDSLAVSLGERATINCRASKSVSAAGYNFMHWYQQKPGQPPKVLIYKASSLESGVPDRFSGSGSGTDFTLTISSLQAEDVAVYYCLHSREFPFTFGGGTKVEIK
8.89

Item Humanised 10G8 H0L1 (antibody, human IgG1, kappa, V domains shown, IgG1 kappa; mature H0 heavy chain and mature L1 light chain; also called Humanised 10G8 H0L1 parent) VH: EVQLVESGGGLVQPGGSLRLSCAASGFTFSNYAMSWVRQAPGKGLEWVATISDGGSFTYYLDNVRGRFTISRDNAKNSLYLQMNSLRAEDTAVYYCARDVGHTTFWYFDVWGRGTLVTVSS VL: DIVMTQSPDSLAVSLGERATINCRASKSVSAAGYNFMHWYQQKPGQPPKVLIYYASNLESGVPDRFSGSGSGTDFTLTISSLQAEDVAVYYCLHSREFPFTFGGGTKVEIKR has what recorded Kd?
0.301

What measured Kd goes with Humanised 10G8 H0(IGHV3-23)L1 (antibody, human IgG1, kappa, V domains shown, IgG1 kappa; also called H0(huCDRH1)L1; H0 (CDRH1 IGHV3_23) L1) VH: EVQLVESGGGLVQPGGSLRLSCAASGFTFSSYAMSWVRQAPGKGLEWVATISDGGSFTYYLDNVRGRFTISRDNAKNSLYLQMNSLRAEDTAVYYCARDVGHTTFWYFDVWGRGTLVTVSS VL: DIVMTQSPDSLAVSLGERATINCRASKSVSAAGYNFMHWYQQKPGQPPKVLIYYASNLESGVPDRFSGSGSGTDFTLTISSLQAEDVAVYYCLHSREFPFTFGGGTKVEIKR ?
0.31

I am curious: what Kd value has been reported for Humanised 10G8 H0 + L1 IGKV1_5 (antibody, V domains shown, built from the stated exchange of CDRL2; residue limits derived by me; Human gamma 1/kappa constant regions) VH: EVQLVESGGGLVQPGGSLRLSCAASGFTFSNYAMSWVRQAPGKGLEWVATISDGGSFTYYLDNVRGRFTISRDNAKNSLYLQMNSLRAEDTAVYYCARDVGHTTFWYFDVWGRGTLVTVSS VL: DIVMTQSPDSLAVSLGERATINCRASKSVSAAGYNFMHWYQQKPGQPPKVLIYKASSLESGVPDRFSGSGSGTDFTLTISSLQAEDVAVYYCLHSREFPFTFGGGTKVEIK ?
8.26

Entry under review: Humanised 10G8 H0(IGHV3-23)L1(IGK4-1) (antibody, V domains shown, built from the stated exchange of CDRL2; residue limits derived by me; also called H0 IGHV3_23 + L1 IGKV4_1; H0(huCDRH1)L1(huCDRL2)) VH: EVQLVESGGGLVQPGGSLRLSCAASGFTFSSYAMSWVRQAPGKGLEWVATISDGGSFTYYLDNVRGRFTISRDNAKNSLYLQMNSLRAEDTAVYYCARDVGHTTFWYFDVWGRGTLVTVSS VL: DIVMTQSPDSLAVSLGERATINCRASKSVSAAGYNFMHWYQQKPGQPPKVLIYWASTRESGVPDRFSGSGSGTDFTLTISSLQAEDVAVYYCLHSREFPFTFGGGTKVEIK . Reported Kd?
1.47

Quick one: Kd for Humanised 10G8 H0 IGHV3_7 + L1 (antibody, V domains shown, built from the statement that the germline CDRH1 was exchanged for the mouse CDRH1 in H0; Human gamma 1/kappa constant regions) VH: EVQLVESGGGLVQPGGSLRLSCAASGFTFSSYWMSWVRQAPGKGLEWVATISDGGSFTYYLDNVRGRFTISRDNAKNSLYLQMNSLRAEDTAVYYCARDVGHTTFWYFDVWGRGTLVTVSS VL: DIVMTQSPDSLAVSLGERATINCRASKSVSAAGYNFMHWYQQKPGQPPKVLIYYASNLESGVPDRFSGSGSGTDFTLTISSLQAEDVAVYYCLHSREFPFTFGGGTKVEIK ?
24.2

What value of Kd has been reported for the following binder? Humanised 10G8 H0L1(IGKV4-1) (antibody, V domains shown, built from the stated exchange of CDRL2; residue limits derived by me; Human gamma 1/kappa constant regions; also called H0L1(huCDRL2)) VH: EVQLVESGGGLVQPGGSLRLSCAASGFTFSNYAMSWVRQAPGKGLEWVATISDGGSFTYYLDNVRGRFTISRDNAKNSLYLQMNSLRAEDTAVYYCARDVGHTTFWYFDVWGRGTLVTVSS VL: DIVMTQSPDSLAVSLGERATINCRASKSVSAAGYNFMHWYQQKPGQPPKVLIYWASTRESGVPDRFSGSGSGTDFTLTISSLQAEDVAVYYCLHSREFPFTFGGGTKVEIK
1.41

Could you tell me which Kd is on file for Humanised 10G8 H0 IGHV3_7 + L1 IGKV4_1 (antibody, V domains shown, built from the stated CDR exchanges; residue limits derived by me) VH: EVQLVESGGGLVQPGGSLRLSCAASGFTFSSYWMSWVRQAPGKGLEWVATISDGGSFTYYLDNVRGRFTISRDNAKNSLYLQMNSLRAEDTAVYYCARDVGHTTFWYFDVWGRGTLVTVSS VL: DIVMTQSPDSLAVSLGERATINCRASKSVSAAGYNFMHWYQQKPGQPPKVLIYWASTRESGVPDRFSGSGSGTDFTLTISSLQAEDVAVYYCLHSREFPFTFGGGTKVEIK ?
34.9
